- method-description: NCI Yeast Anticancer Drug Screen. Data for the rad50 strain (AID 155);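 also: 0% = growth of vehicle-only cultures of the same strain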
- experimental-context: S. cerevisiae rad50 strain growth inhibition; at 100.0 µM
Compounds without any hit were thinned out: in the full panel of roughly 79,000, 15% have a hit. Calls of active or inactive are those of the source. Rule as the data show it: active = growth inhibition above about 70%; inactive = the rest.
API: response.call in T for active, F for inactive

Field: example entries. Status: answers known.
CC(C)C(=O)CC(Sc1ccc(N)cc1)c1ccccc1 (stereo not drawn) : F
CC(C)OP(=O)(OC(C)C)/C(Cl)=N/Nc1ccc([N+](=O)[O-])cc1 : T
O=C(O)c1ccccc1C(=O)OC1CCc2ccccc2C1 (stereo not drawn) : F
CCCCCCCCCC(=O)N(CCC)CCC : T
CNCC(C)CNC : F
O=C(O)C1CCCCC1c1c2ccc(=O)cc-2oc2cc(O)ccc12 (stereo not drawn) : T

Query block: GET /call?item= "CCN(CC)CCNc1ccc2ncn3c4ccc(O)cc4c(=O)c1c23" returns the recorded outcome of this test.
Result block: T

Query block: Again, but for "O/N=c1/ccn(O)c2ccccc12"
Result block: T

Query block: Proceed to "O=C(O)c1c2ccc(Cl)cc2nc2[nH]c(=O)[nH]c(=O)c12"
Result block: F

----------
# growth inhibition per entry
- method-description: NCI Yeast Anticancer Drug Screen. Data for the mlh1 strain (AID 171);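 also: 0% = growth of vehicle-treated control cultures of the same strain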
- experimental-context: S. cerevisiae mlh1 strain growth inhibition; at 33.0 µM; hits give high values
About 79,000 compounds went through this panel and 15% of them were active in at least one assay; those are over-represented in the sample as a whole. Active and inactive are the calls of the source. Rule as the data show it: active = growth inhibition above about 70%; inactive = the rest.

For orientation, consider the following solved cases.
O=C(Cc1ccccc1)NN1C(=O)C(Cl)C1c1cc(Br)cc(Br)c1O (stereo not drawn) : 95% (active)
O=C(Cc1ccccc1)NNc1nc(NNC(=O)c2ccncc2)nc(Nc2ccc(Cl)cc2)n1 : -2% (inactive)
Cc1cc(OCc2nc(N)nc(N)c2-c2ccc(Cl)c(Cl)c2)ccc1[N+](=O)[O-] : -1% (inactive)
O=C1c2ccccc2-c2ccc(N=Cc3ccccc3)cc21 : 23% (inactive)
NC(=S)N1N=C2c3ccccc3CC[C@H]2[C@@H]1c1ccc(Cl)cc1 : 51% (inactive)

Query block: # growth inhibition lookup, item "Cc1cc(C)c2[s+]snc2c1"
Result block: 4% (inactive)

Query block: Request: "CO[C@@]1([C@@H](Cl)c2ccccc2)C(=O)N(C)/C(=C\c2ccccc2)C(=O)N1C"
Result block: 9% (inactive)

Query block: Proceed to "O=C1c2ccccc2C(=O)c2c(O)c(NCCNCCO)cc(O)c21"
Result block: 91% (active)

Query block: Okay, and O=S(=O)(c1cccc(C(F)(F)F)c1)N1c2ccccc2-n2cccc2C1c1cccnc1 (stereo not drawn) ?
Result block: 93% (active)

Query block: Subsequent entry: "Brc1ccc(B2Nc3ccccc3N2)cc1"
Result block: 28% (inactive)

Query block: Same again, this time with "CC(C)OC(=O)NNc1cc(Cl)ccc1Cl"
Result block: 50% (inactive)

Query block: Would you kindly repeat that for "O=C(O)C(=Cc1ccc(-c2ccccc2)cc1)C(=O)O" ?
Result block: 69% (inactive)

Query block: Please answer likewise for "O=C1C=CC(=Nc2cccc3c2-c2ccccc2C3=O)O1"
Result block: 99% (active)

Query block: Likewise for "S=C(NCc1ccccn1)N/N=C/c1ccccn1" ?
Result block: 97% (active)

Query block: Entry to check: "O=C(Nc1ccc(Cl)cc1)c1cc2cc(N=Nc3ccccc3Cl)ccc2oc1=O"
Result block: 95% (active)

Query block: Moving on to the next compound: CC1CN(/N=C\c2ccc([N+](=O)[O-])o2)C(=O)O1 (stereo not drawn)
Result block: 3% (inactive)

Query block: Likewise for "CC(=O)/C=C/c1cccc([N+](=O)[O-])c1" ?
Result block: 32% (inactive)

Query block: # iterate: "CC(C)Cc1ncc(CCCN=C(N)N)[nH]c1=O"
Result block: -4% (inactive)
